system: Human immunodeficiency virus 1; experiment: Antiviral activity against HIV1 expressed in 293T cells assessed as protection against viral M33 envelope infection in human U87 cells coexpressing CD4, CCR5 receptors after 72 hrs by luciferase reporter gene pseudoviral assay; format: functional, organism-based; details: Human immunodeficiency virus 1, HEK-293T
Measured property: IC50 (nM)

[[record]]
molecule = "COc1cc(-c2cc(C)no2)ccc1C(=O)C(=O)N1CCN(C(=O)c2ccccc2)C[C@H]1C"
assay_target = "Human immunodeficiency virus 1"
measured_property = "IC50"
value_operator = "<"
experimental_value = 5

[[record]]
molecule = "COc1ncc(OC)c2c(C(=O)C(=O)N3CCN(C(=O)c4ccccc4)CC3)c[nH]c12"
assay_target = "Human immunodeficiency virus 1"
measured_property = "IC50"
value_operator = "="
experimental_value = 26

[[record]]
molecule = "COc1ccnc2[nH]cc(C(=O)C(=O)N3CCN(C(=O)c4ccccc4)C[C@H]3C)c12"
assay_target = "Human immunodeficiency virus 1"
measured_property = "IC50"
value_operator = "="
experimental_value = 8

[[record]]
molecule = "C[C@@H]1CN(C(=O)c2ccccc2)CCN1C(=O)C(=O)c1ccc(-c2ccncc2)cc1"
assay_target = "Human immunodeficiency virus 1"
measured_property = "IC50"
value_operator = "="
experimental_value = 2500

[[record]]
molecule = "C[C@@H]1CN(C(=O)c2ccccc2)CCN1C(=O)C(=O)c1ccc(-c2cc[nH]n2)nc1"
assay_target = "Human immunodeficiency virus 1"
measured_property = "IC50"
value_operator = "="
experimental_value = 1000

[[record]]
molecule = "C[C@@H]1CN(C(=O)c2ccccc2)CCN1C(=O)C(=O)c1ccc(-c2cc[nH]n2)cc1N"
assay_target = "Human immunodeficiency virus 1"
measured_property = "IC50"
value_operator = "="
experimental_value = 78

[[record]]
molecule = "CC1CN(C(=O)c2ccccc2)CCN1C(=O)C(=O)c1ccc(-n2cncn2)cc1 (racemic)"
assay_target = "Human immunodeficiency virus 1"
measured_property = "IC50"
value_operator = "="
experimental_value = 940

[[record]]
molecule = "CC1CN(C(=O)c2ccccc2)CCN1C(=O)C(=O)c1ccc(-c2cc[nH]n2)cc1 (racemic)"
assay_target = "Human immunodeficiency virus 1"
measured_property = "IC50"
value_operator = "="
experimental_value = 160

[[record]]
molecule = "CC1CN(C(=O)c2ccccc2)CCN1C(=O)C(=O)c1ccc(-n2nccn2)cc1 (racemic)"
assay_target = "Human immunodeficiency virus 1"
measured_property = "IC50"
value_operator = "="
experimental_value = 870

[[record]]
molecule = "Cc1cc(-c2cc[nH]n2)ccc1C(=O)C(=O)N1CCN(C(=O)c2ccccc2)C[C@H]1C"
assay_target = "Human immunodeficiency virus 1"
measured_property = "IC50"
value_operator = "="
experimental_value = 1100

[[record]]
molecule = "C[C@@H]1CN(C(=O)c2ccccc2)CCN1C(=O)C(=O)c1ccc(-n2cccn2)cc1"
assay_target = "Human immunodeficiency virus 1"
measured_property = "IC50"
value_operator = "="
experimental_value = 1200

[[record]]
molecule = "C[C@@H]1CN(C(=O)c2ccccc2)CCN1C(=O)C(=O)c1ccc(-c2cscn2)cc1"
assay_target = "Human immunodeficiency virus 1"
measured_property = "IC50"
value_operator = "="
experimental_value = 420

[[record]]
molecule = "C[C@@H]1CN(C(=O)c2ccccc2)CCN1C(=O)C(=O)c1ccc(-c2cc[nH]n2)cc1F"
assay_target = "Human immunodeficiency virus 1"
measured_property = "IC50"
value_operator = "="
experimental_value = 46

[[record]]
molecule = "Cc1ccc(-c2ccc(C(=O)C(=O)N3CCN(C(=O)c4ccccc4)C[C@H]3C)cc2)o1"
assay_target = "Human immunodeficiency virus 1"
measured_property = "IC50"
value_operator = "="
experimental_value = 2800

[[record]]
molecule = "C[C@@H]1CN(C(=O)c2ccccc2)CCN1C(=O)C(=O)c1ccc(-c2ccccn2)s1"
assay_target = "Human immunodeficiency virus 1"
measured_property = "IC50"
value_operator = "="
experimental_value = 13000

[[record]]
molecule = "C[C@@H]1CN(C(=O)c2ccccc2)CCN1C(=O)C(=O)c1ccc(-c2nccs2)cc1"
assay_target = "Human immunodeficiency virus 1"
measured_property = "IC50"
value_operator = "="
experimental_value = 630

[[record]]
molecule = "Cc1nc(-c2ccc(C(=O)C(=O)N3CCN(C(=O)c4ccccc4)C[C@H]3C)cc2)cs1"
assay_target = "Human immunodeficiency virus 1"
measured_property = "IC50"
value_operator = "="
experimental_value = 5400

[[record]]
molecule = "C[C@@H]1CN(C(=O)c2ccccc2)CCN1C(=O)C(=O)c1ccc(-c2cnco2)c(Cl)c1"
assay_target = "Human immunodeficiency virus 1"
measured_property = "IC50"
value_operator = "<"
experimental_value = 5

